Hello, the source for this data is patent US20260242735A1, in case you need it.

Target: human CD33 D353A (human, UniProt P20138 18-364)
Sequence (P20138 18-364 D353A limits assumed): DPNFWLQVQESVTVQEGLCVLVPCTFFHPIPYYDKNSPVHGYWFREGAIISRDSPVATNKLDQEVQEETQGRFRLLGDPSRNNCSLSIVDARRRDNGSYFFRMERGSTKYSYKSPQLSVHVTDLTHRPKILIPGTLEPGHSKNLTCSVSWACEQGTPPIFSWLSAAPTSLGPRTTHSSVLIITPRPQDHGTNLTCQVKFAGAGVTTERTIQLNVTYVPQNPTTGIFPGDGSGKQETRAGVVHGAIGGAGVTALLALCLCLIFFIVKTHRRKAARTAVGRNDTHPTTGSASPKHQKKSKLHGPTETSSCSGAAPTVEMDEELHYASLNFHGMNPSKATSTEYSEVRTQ
Experiment: flow cytometry, alanine scan

binder	Mean % WT Binding
Refmab #2 (antibody, V domains shown, The alanine scan used IgG or Fab) VH: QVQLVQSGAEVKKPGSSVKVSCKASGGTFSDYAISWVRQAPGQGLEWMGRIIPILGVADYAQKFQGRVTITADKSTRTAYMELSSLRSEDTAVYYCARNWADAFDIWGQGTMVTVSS VL: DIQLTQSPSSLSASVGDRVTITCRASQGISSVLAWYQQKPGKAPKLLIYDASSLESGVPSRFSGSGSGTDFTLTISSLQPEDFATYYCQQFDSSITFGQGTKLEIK	94.4 % of WT
Refmab #4 (antibody, V domains shown, The alanine scan used IgG or Fab) VH: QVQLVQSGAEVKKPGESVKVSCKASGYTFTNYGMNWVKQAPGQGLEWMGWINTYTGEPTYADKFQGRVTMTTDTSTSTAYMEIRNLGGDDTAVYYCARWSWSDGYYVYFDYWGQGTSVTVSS VL: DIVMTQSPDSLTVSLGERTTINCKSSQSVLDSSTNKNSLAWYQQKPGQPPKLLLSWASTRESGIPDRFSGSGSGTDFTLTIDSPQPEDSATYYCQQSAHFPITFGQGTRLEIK	74.9 % of WT
Refmab #1 (antibody, V domains shown, The alanine scan used IgG or Fab; also called hP67.6) VH: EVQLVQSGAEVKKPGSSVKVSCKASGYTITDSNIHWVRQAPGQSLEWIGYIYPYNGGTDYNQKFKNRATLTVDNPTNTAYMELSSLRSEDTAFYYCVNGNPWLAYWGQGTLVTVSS VL: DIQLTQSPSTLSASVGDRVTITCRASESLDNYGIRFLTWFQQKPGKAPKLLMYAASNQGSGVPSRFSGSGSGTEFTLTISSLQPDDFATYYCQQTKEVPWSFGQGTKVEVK	94.7 % of WT
Refmab #3 (antibody, V domains shown, The alanine scan used IgG or Fab) VH: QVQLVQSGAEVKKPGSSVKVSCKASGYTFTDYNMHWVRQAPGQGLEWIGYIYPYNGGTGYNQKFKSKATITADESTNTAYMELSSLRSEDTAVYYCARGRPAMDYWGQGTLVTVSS VL: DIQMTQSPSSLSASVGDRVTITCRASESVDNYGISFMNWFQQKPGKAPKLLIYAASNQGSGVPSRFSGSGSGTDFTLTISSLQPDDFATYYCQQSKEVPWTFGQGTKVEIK	98.3 % of WT
